Experiment: self-splicing fitness, log relative to wild type (ln ratio); higher = more splicing; Tetrahymena group I intron in knt gene, E. coli kanamycin selection, DiMSum; sequences stand for … in CUCUCU…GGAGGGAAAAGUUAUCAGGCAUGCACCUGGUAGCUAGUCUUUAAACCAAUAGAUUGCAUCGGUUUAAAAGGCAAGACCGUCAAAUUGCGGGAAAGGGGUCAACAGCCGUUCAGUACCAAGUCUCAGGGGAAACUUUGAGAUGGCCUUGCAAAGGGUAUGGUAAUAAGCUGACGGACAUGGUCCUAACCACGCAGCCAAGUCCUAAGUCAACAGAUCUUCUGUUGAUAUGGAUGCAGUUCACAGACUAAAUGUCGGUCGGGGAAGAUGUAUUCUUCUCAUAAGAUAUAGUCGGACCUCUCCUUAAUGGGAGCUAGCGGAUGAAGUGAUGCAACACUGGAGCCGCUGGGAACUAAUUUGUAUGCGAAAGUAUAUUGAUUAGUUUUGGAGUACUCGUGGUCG;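 further: selection with 25 µg/mL kanamycin versus none on LB agar overnight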
Applied Conditions: 37 °C
Label Yes when self-splicing fitness (ln) >= -2; otherwise No.

INSERT INTO assay_data (sequence_text, assigned_label) VALUES
  ('AUUCAGCAAUAUUACGCGCC', 'Yes'),
  ('GCUAAGCAAUAUUACGCCCU', 'Yes'),
  ('CAUAAGCAAUAUUACGGGCC', 'Yes'),
  ('GCGAAGCAAUAUUACGCCAC', 'No'),
  ('AUCGAGCAAUAUUACGGUUU', 'Yes'),
  ('UCCUAGCAAUAUUACGUACA', 'Yes'),
  ('GUGAAGCAAUAUUACGUCCC', 'Yes'),
  ('UGUGAGCAAUAUUACGGCGA', 'Yes'),
  ('CAUAAGCAAUAUUACGGAUU', 'No'),
  ('AUCCAGCAAUAUUACGACUA', 'Yes'),
  ('UUCAAGCAAUAUUACGCCUA', 'Yes'),
  ('CAAUAGCAAUAUUACGCAAA', 'No'),
  ('GACGAGCAAUAUUACGGCAA', 'Yes'),
  ('ACGGAGCAAUAUUACGUUGU', 'No'),
  ('CGCUAGCAAUAUUACGGGCG', 'No'),
  ('CAACAGCAAUAUUACGUGGC', 'No');

* * *

Experiment: self-splicing fitness, log relative to wild type (ln ratio); higher = more splicing; Tetrahymena group I intron in knt gene, E. coli kanamycin selection, DiMSum; sequences stand for … in CUCUCU…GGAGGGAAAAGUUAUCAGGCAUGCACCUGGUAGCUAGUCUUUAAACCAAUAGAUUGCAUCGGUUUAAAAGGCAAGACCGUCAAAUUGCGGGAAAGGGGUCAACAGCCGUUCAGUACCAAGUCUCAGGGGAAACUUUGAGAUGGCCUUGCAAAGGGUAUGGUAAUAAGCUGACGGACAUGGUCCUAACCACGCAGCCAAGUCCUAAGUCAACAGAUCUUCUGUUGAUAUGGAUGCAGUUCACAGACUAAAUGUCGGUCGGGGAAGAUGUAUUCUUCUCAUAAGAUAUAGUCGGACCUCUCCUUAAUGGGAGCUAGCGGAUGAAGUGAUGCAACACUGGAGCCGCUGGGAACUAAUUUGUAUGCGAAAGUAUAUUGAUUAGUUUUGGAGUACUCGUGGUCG
Applied Conditions: 30 °C
# self-splicing fitness (ln) annotations
Endpoint Name: self-splicing fitness (ln)

INSERT INTO results (sequence_text, endpoint_name, recorded_result) VALUES
  ('CGUAAGCAAUAUUACGCAAG', 'self-splicing fitness (ln)', -1.99),
  ('GCCUAGCAAUAUUACGAUUU', 'self-splicing fitness (ln)', -1.98),
  ('CAAGAGCAAUAUUACGGUGG', 'self-splicing fitness (ln)', -2),
  ('UCCUAGCAAUAUUACGGAAA', 'self-splicing fitness (ln)', -1.98);

* * *

Experiment: self-splicing fitness, log relative to wild type (ln ratio); higher = more splicing; Tetrahymena group I intron in knt gene, E. coli kanamycin selection, DiMSum; sequences stand for … in CUCUCU…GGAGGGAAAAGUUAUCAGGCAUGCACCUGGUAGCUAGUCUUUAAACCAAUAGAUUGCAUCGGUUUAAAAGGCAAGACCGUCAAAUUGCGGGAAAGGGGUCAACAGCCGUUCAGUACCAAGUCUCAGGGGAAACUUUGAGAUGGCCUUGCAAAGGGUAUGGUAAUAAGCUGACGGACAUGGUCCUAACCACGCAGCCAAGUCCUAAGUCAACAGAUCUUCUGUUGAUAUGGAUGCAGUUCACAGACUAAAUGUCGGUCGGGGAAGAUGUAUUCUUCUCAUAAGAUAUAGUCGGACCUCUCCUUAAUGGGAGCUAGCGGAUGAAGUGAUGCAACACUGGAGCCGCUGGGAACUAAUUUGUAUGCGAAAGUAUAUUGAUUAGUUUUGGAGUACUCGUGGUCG
Applied Conditions: 37 °C
# self-splicing fitness (ln) annotations
Endpoint Name: self-splicing fitness (ln)

INSERT INTO measurements (sequence_text, recorded_result) VALUES
  ('ACAGAGCAAUAUUACGACUA', -1.17),
  ('GCAAAGCAAUAUUACGAGCA', -0.394),
  ('GGCGAGCAAUAUUACGACUG', -0.589),
  ('GAUCAGCAAUAUUACGAAGG', -1.59),
  ('ACUAAGCAAUAUUACGGAGC', -0.628),
  ('GAACAGCAAUAUUACGGAAU', -1.18),
  ('GGCAAGCAAUAUUACGGGGG', -2.54),
  ('CAGCAGCAAUAUUACGGCCU', -0.208),
  ('UGCCAGCAAUAUUACGCAUA', -1.26),
  ('AUGCAGCAAUAUUACGCACA', 0.467),
  ('AUAAAGCAAUAUUACGUUAA', -1.16),
  ('GAAAAGCAAUAUUACGAAUC', -1.04),
  ('CCCCAGCAAUAUUACGCUGU', -3.09);

* * *

Experiment: self-splicing fitness, log relative to wild type (ln ratio); higher = more splicing; Tetrahymena group I intron in knt gene, E. coli kanamycin selection, DiMSum; sequences stand for … in CUCUCU…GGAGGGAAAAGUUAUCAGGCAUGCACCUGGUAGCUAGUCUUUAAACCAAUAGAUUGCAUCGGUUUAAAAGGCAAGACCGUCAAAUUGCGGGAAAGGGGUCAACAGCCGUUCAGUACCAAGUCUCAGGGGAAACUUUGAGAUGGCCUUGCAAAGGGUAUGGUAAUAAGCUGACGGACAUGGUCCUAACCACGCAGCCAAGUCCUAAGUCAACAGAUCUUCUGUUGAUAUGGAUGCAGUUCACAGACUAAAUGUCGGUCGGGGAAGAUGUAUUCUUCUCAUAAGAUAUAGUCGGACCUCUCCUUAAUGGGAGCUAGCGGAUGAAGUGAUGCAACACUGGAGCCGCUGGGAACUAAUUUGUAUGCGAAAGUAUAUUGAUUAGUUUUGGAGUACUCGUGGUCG
Applied Conditions: 30 °C
Endpoint Name: self-splicing fitness (ln)

INSERT INTO measurements (sequence_text, recorded_result) VALUES
  ('AUAGAGCAAUAUUACGGCUA', 0.361),
  ('CUCCAGCAAUAUUACGAAAA', -2.78),
  ('CGAGAGCAAUAUUACGAGCA', -1.62);

* * *

Experiment: self-splicing fitness, log relative to wild type (ln ratio); higher = more splicing; Tetrahymena group I intron in knt gene, E. coli kanamycin selection, DiMSum; sequences stand for … in CUCUCU…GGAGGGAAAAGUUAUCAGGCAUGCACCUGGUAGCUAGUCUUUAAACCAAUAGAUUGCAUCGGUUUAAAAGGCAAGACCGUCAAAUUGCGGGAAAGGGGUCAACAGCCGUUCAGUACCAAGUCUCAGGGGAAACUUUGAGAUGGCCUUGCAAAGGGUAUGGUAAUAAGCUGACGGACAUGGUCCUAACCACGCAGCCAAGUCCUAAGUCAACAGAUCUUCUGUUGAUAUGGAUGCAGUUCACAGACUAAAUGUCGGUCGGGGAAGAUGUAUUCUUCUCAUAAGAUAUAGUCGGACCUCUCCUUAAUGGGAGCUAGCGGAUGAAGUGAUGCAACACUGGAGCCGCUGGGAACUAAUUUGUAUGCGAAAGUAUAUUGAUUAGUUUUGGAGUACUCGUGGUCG
Applied Conditions: 37 °C
Endpoint Name: self-splicing fitness (ln)

INSERT INTO assay_data (sequence_text, endpoint_name, recorded_result) VALUES
  ('ACGGAGCAAUAUUACGUCCA', 'self-splicing fitness (ln)', -0.993),
  ('GUGAAGCAAUAUUACGAAUU', 'self-splicing fitness (ln)', -0.439),
  ('AACAAGCAAUAUUACGGGUU', 'self-splicing fitness (ln)', -2.91),
  ('UUCAAGCAAUAUUACGACCG', 'self-splicing fitness (ln)', 0.147),
  ('CGCCAGCAAUAUUACGCGUA', 'self-splicing fitness (ln)', -2.31),
  ('UGGCAGCAAUAUUACGUGUU', 'self-splicing fitness (ln)', -2.2);
